system: A498 renal; assay: NCI-60 one-dose screen, 48 h (100 = growth as untreated, 0 = no growth, -100 = all killed); settings: 10 µM unless noted
Compounds without any hit were thinned out: in the full panel of roughly 83,000, 20% have a hit.
Experimental Readout: growth (%)
Only the number, expressed in %, is required.

Qu. Fill in: growth of COCn1c(C(=O)OC)cc2oc(/C=C3/SC(=S)N(N)C3=O)cc21 is ___
Ans. 54

Qu. Fill in: growth of COc1cc(OC)c(NC(=O)n2ncc3cc(Nc4ncnc5ccccc45)ccc32)cc1Cl is ___
Ans. 54.2

Qu. Fill in: growth of CCCCCCCCC1OC1CCCCCCCC(=O)O (stereo not drawn) is ___
Ans. 102

Qu. Fill in: growth of COc1cc(-c2cc3cnccc3c3nc(N)c4ccncc4c23)cc(OC)c1OC is ___
Ans. -16.8

Qu. Fill in: growth of CCCC(=O)NNc1[nH]c(-c2ccc(OC)cc2)cc1C(=O)OCC is ___
Ans. 95.8

Qu. Fill in: growth of COc1ccc(/C=C/C(=O)/C=C/c2cc3ccccc3[nH]c2=O)cc1 is ___
Ans. 100

Qu. Fill in: growth of Cc1ccc(C(=O)C(Br)C(Br)c2ccccc2)cc1 (stereo not drawn) is ___
Ans. 75.6

Qu. Fill in: growth of O=C(Nc1cccc(Cn2c(=O)[nH]c3ccc(Oc4ncccn4)cc3c2=O)c1)c1cc(Cl)cc(Cl)c1 is ___
Ans. 85.3

----------
system: MDA-MB-231 breast; assay: NCI-60 one-dose screen, 48 h; settings: 10 µM unless noted
About 83,000 compounds went through this panel and 20% of them were active in at least one assay; those are over-represented in the sample as a whole. Activity calls are given as the source filed them. The calls were made as follows: active = growth percent below 10; inactive = the rest.
Can you answer with just one of these options? 1 = active, 0 = inactive

Qu. Test call, this molecule: COC(=O)CC(=O)C(=O)OC
Ans. 0

Qu. Test call, this molecule: CCCCCCCCCCC1OC(C)CC(C)O1 (stereo unspecified)
Ans. 0

Qu. Test call, this molecule: COc1cc2c(c3c1c(=O)c1cccc(F)c1n3C)C=CC(C)(C)O2
Ans. 0

Qu. Test call, this molecule: C=CCC(CCC(CC=C)C(=O)OCC)C(=O)OCC (stereo unspecified)
Ans. 0

Qu. Test call, this molecule: CCCCCCCCCc1cc[n+](CC(=O)c2ccc([N+](=O)[O-])cc2)cc1
Ans. 1

Qu. Test call, this molecule: COc1ccc(-c2cn3ccnc3c(-c3ccc4ncn(C5CCCCC5)c4c3)n2)cc1
Ans. 0

Qu. Test call, this molecule: CC(=O)Nc1ccc(S(=O)(=O)Cl)cc1
Ans. 0

Qu. Test call, this molecule: CCCCCCCCCCCCCCCCNC(=O)Nc1ccc(C)c(NC(=O)NCCCCCCCCCCCCCCCC)c1
Ans. 0

Qu. Test call, this molecule: COc1cc(-c2nn(-c3ccc(NC(=O)Nc4ccc(Cl)c(C(F)(F)F)c4)cc3)cc2-c2ccncc2)ccc1Cl
Ans. 1

Qu. Test call, this molecule: BrCCCOc1ccc(Oc2ccc(OCCCBr)cc2)cc1
Ans. 0

Qu. Test call, this molecule: Cc1ccc(C(=O)Nc2ccc(CN3CCN(C)CC3)c(C(F)(F)F)c2)cc1C#Cc1cncc2ncccc12
Ans. 1

Qu. Test call, this molecule: COc1cc2ncnc(Nc3ccc4c(cnn4C(=O)Nc4ccccc4)c3)c2cc1OC
Ans. 0

Qu. Test call, this molecule: CCCCCCCCCC(C)NC(=O)CCl (stereo unspecified)
Ans. 0

Qu. Test call, this molecule: N=c1c2c(=O)n3c(nc2nc2sc4ccc(Cl)cc4n12)-c1ccccc1Sc1ccccc1-3
Ans. 1

Qu. Test call, this molecule: CC(=O)Nc1ccc(CC#N)cc1Br
Ans. 0

Qu. Test call, this molecule: O=c1c2c(c3ccccc3n1-c1ccccc1)NC(=S)NC2c1ccccc1 (stereo unspecified)
Ans. 0

----------
Assign growth to each entry below.
Tested on: COLO 205 colon
Assay: NCI-60 one-dose screen, 48 h (100 = growth as untreated, 0 = no growth, -100 = all killed)
Conditions: 10 µM unless noted
Description: Cells are grown in 96 well plates and exposed to the test compound for 48 hours. Compounds are tested at a single concentration, which is 10^-5 M for most compounds. The reported endpoint is percent growth (GI% or GIPRCNT), where numbers from 0 - 100% represent growth inhibition, and numbers from -100% - 0 represent cell death. For example, a value of 40 represents 60% growth inhibition. A value of 0 means no net growth occurred over the course of the experiment. […]
The panel holds about 83,000 compounds, 20% with a hit somewhere; the sample as a whole holds those more often.
Only the number, expressed in %, is required.

Qu. Fill in: growth of OCC(O)C(O)CC1SCCS1 (stereo unspecified) is ___
Ans. 106

Qu. Fill in: growth of COc1cc2c(/C=C3\C(=O)Nc4ccc(Br)cc43)c(Cl)n(C)c2cc1C is ___
Ans. 6.03

Qu. Fill in: growth of CCOC(=O)c1csc(-c2ccc(COC(=O)c3ccccc3)o2)n1 is ___
Ans. 114

Qu. Fill in: growth of CC(=O)N(N=O)c1ccc([N+](=O)[O-])cc1Cl is ___
Ans. 97.6

Qu. Fill in: growth of O=C(NC1CCN(Cc2ccccc2)CC1)c1cc(-c2cccnc2)nc2ccc(Cl)cc12 is ___
Ans. -37.3

Qu. Fill in: growth of COc1cc(C(=O)Nc2ccc(N(C)C)cc2)cc(OC)c1OC is ___
Ans. 100

----------
system: EKVX NSCLC; assay: NCI-60 one-dose screen, 48 h (100 = growth as untreated, 0 = no growth, -100 = all killed); conditions: 10 µM
About 83,000 compounds went through this panel and 20% of them were active in at least one assay; those are over-represented in the sample as a whole.
growth strictly under 70% means criterion met; at 70% or over means criterion not met.

Qu. # check: growth < 70% for COc1ccc(OC)c(Cn2cc3c(c2)-c2oncc2CC3)c1
Ans. criterion met

Qu. # check: growth < 70% for CCCCCN1CCN(C(CC(=O)c2ccccc2)C(=O)c2ccccc2)CC1 (stereo not given)
Ans. criterion not met

Qu. # check: growth < 70% for Cc1ccc(C(=O)Nc2ccc(CN3CCN(C)CC3)c(C(F)(F)F)c2)cc1C#Cc1cnc(N)c2ccc(C#N)cc12
Ans. criterion met

Qu. # check: growth < 70% for CC1(C)NCCC[C@]2(C)[C@H]3CC=C4[C@@H]5C[C@](C)(COC(=O)c6ccccc6C(=O)O)CC[C@]5(C)CC[C@@]4(C)[C@]3(C)CC[C@@H]12
Ans. criterion not met

----------
test system: CAKI-1 renal; experiment: NCI-60 one-dose screen, 48 h; conditions: 10 µM unless noted
The panel holds about 83,000 compounds, 20% with a hit somewhere; the sample as a whole holds those more often. The source made the active and inactive calls. How the source made its calls: active means growth percent below 10; inactive means the rest.
Can you answer with just one of these options? yes = active, no = inactive

Qu. Test call, this molecule: CCCC[N+](C)(N)CCCC
Ans. no

Qu. Test call, this molecule: CC1(C)N=C(N)N=C(N)N1c1cccc(CCCCOc2ccccc2)c1
Ans. no

Qu. Test call, this molecule: S=C(N/N=C/c1cc(Cl)cc(Cl)c1)NC12CC3CC(CC(C3)C1)C2
Ans. yes

Qu. Test call, this molecule: Cc1ccc(NC(=O)CCl)cc1Cl
Ans. no

Qu. Test call, this molecule: COc1cc(-c2cc3cnccc3c3nc(N)c4ccncc4c23)cc(OC)c1OC
Ans. no

----------
test system: SK-MEL-28 melanoma; experiment: NCI-60 one-dose screen, 48 h (100 = growth as untreated, 0 = no growth, -100 = all killed); conditions: 10 µM unless noted
Compounds without any hit were thinned out: in the full panel of roughly 83,000, 20% have a hit.
Assign growth to each entry below.
Only the number, expressed in %, is required.

Qu. Fill in: growth of O=C(NCCCl)Nc1nccnc1OCc1ccc(F)cc1 is ___
Ans. 109

Qu. Fill in: growth of O=C(O)CC1Cc2ccccc2C1C(=O)O (centres undefined) is ___
Ans. 109

Qu. Fill in: growth of O=C1N/C(=N\c2nnc(-c3ccc(O)cc3)s2)S/C1=C\c1ccccc1O is ___
Ans. 106

Qu. Fill in: growth of COc1ccc(Nc2c3ccccc3nc3ccccc23)cc1 is ___
Ans. 49.7

Qu. Fill in: growth of CN1CCN(Cc2ccc(NC(=O)c3ccc(C#Cc4c(N)ncc5ccc(F)cc45)cc3)cc2C(F)(F)F)CC1 is ___
Ans. -97.8

Qu. Fill in: growth of COc1cccc2c1nc1cccc(OC)c1[n+]2[O-] is ___
Ans. 103

Qu. Fill in: growth of COC(=O)c1cc(O)c2cc3c(cc2c1-c1cc(OC)c(OC)c(OC)c1)OCO3 is ___
Ans. 51.5

Qu. Fill in: growth of C[C@@H](c1ccc2c(c1)[nH]c1ccc(Cl)cc12)c1nc2ccccc2[nH]1 is ___
Ans. 112

Qu. Fill in: growth of O=C1C=C(OCC=C(C(F)(F)F)C(F)(F)F)c2ccccc2C1=O is ___
Ans. -17.5

Qu. Fill in: growth of CC(=O)/C(=C/c1ccc(-c2ccccc2)cc1)C(=O)c1ccccc1 is ___
Ans. 96.2

Qu. Fill in: growth of C/C=C/C/C=C/[C@H](C)C[C@H](O)[C@@H]1C[C@@H]2O[C@H]2/C=C/[C@@H]2OC(C)(C)O[C@H]2/C=C/C[C@H](C)CC(=O)O1 is ___
Ans. 59.3

Qu. Fill in: growth of O=C1CSC(c2ccccc2Cl)N1c1nnc(-c2ccncc2)o1 (centres undefined) is ___
Ans. 101

Qu. Fill in: growth of O=C1C(=O)c2ccccc2C(O)=C1CCCc1ccc(C2CCCC2)cc1 is ___
Ans. 53.1

Qu. Fill in: growth of CC(=O)NNC(=O)c1sc(NC(C)=O)nc1C is ___
Ans. 95.9
